# assay.system: Oxysterols receptor LXR-beta (Homo sapiens, UniProt P55055)
# Sequence (P55055 whole entry): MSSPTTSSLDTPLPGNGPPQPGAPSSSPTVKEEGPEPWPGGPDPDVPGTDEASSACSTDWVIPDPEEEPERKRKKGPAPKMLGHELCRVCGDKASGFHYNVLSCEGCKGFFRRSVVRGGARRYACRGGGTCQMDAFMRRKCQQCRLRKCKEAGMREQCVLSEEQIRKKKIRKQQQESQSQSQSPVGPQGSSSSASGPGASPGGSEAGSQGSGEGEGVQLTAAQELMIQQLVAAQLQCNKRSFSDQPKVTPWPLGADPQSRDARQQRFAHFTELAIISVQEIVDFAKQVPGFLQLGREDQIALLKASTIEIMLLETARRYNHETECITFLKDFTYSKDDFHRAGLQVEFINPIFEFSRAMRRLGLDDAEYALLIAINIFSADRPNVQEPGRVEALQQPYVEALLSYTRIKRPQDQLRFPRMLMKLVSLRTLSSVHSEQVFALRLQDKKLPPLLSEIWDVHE
# assay.explanation: Transactivation of human LXR-beta transfected in HEK293 cells after 24 hrs by luciferase reporter gene assay
# Format: cell-based
pEC50: −log10 of the molar value.
endpoint: pEC50

| smiles.str | endpoint | readout.value |
| --- | --- | --- |
| CCOC(=O)c1c(O)cc(O)cc1O | pEC50 | 4.42 |

###

# assay.system: Oxysterols receptor LXR-alpha (Homo sapiens, UniProt Q13133)
# Sequence (Q13133 whole entry): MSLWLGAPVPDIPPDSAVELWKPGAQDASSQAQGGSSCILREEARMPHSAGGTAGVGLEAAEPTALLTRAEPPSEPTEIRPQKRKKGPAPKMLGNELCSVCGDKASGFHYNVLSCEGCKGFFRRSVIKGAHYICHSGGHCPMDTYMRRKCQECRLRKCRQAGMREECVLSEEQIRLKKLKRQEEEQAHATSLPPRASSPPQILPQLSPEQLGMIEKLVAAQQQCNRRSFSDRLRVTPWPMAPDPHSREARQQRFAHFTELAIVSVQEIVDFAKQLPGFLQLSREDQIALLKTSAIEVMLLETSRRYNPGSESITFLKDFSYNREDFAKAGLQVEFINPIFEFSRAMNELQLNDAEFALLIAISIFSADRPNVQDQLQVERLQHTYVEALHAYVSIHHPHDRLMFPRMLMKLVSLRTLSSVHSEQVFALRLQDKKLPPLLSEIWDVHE
# assay.explanation: Transactivation of human LXR-alpha transfected in HEK293 cells after 24 hrs by luciferase reporter gene assay
# Format: cell-based

| smiles.str | measurement.units | EC50 |
| --- | --- | --- |
| CCOC(=O)c1c(O)cc(O)cc1O | µM | 80.8 |

###

# assay.system: UniProtKB P55055
# assay.explanation: Agonist activity at human LXR-beta assessed as increase in recruitment of Trap 220/D22 coactivator peptide by TR-FRET assay
# Type: functional
pEC50: −log10 of the molar value.

| smiles.str | pEC50 |
| --- | --- |
| CCOC(=O)c1c(O)cc(O)cc1O | 5.52 |
